test system: MB453 cells; assay: alamarBlue MB453 cell assay (antiproliferative/cytotoxicity); type: cell-based; conditions: Homo sapiens; MDA MB 453 breast cancer cell line
We'd kindly ask you to apply these EC50 classes: lowest (below 60 nM), middle (60 nM to below 200 nM), highest (200 nM or more)

## Input Which class is correct for the following compound? CCc1ncnc(-c2ccnc(C)c2)c1C#Cc1cnc(C)c(NS(=O)(=O)c2cc(Cl)ccc2OC)c1 [Example 101]
## Output middle

## Input In plain terms, what class is CCc1ncnc(-c2ccc(CN)nc2)c1C#Cc1cnc(C)c(NS(=O)(=O)c2ccc(F)cc2F)c1 [Example 104] ?
## Output middle

## Input Note: place this compound into its band. Item: CCc1ncnc(-c2cccc(F)c2)c1C#Cc1cnc(C)c(NS(C)(=O)=O)c1 [Example 61]
## Output highest

## Input Please report the category associated with CCc1ncnc(-c2cccc(CN(C)C)c2)c1C#Cc1cnc(C)c(NS(=O)(=O)c2ccc(F)cc2F)c1 [Example 30] , nothing else.
## Output middle

## Input Textbook exercise: identify the category of the compound given here, CCc1ncnc(-c2ccc(CN)nc2)c1C#Cc1cnc(C)c(NS(=O)(=O)c2ccccc2)c1 [Example 106] , according to its measured value.
## Output middle

## Input The entry to classify is Cc1cc(C)cc(-c2ncnc(C)c2C#Cc2cnc(C)c(NS(C)(=O)=O)c2)c1 [Example 43] ; which class holds it?
## Output highest

## Input GET /class?item= CCc1ncnc(-c2ccc(C)nc2)c1C#Cc1cnc(C)c(NS(=O)(=O)c2ccc(F)cc2F)c1 [Example 9]
## Output lowest

## Input Which bin, given its EC50, does CCc1ncnc(-c2cc(C)nc(C)c2)c1C#Cc1cnc(C)c(NS(C)(=O)=O)c1 [Example 6] occupy?
## Output lowest

## Input # bin lookup: classify CCc1ncnc(-c2ccc(CNC(=O)OC(C)(C)C)nc2)c1C#Cc1cnc(C)c(NS(=O)(=O)c2ccccc2)c1 [Example 50] by its EC50
## Output middle

## Input Which class does CCc1nc(N)nc(-c2ccnc(C)c2)c1C#Cc1cnc(C)c(NS(=O)(=O)c2ccc(F)cc2F)c1 [Example 33] fall in?
## Output lowest

## Input # bin label for CCc1ncnc(-c2cccc(C(F)(F)F)c2F)c1C#Cc1cnc(C)c(NS(C)(=O)=O)c1 [Example 70]
## Output highest

## Input Assign a category based on measured EC50 for CCc1nc(N)nc(-c2ccc(C(=O)N3CCN(C)CC3)c(F)c2)c1C#Cc1cnc(C)c(NS(=O)(=O)c2ccc(F)cc2F)c1 [Example 32] and give only the class name.
## Output lowest

## Input Looking at CCc1ncnc(-c2ccnc(C)c2)c1C#Cc1cnc(C)c(NS(=O)(=O)c2ccc(OC)cc2OC)c1 [Example 98] , which class would you pick?
## Output highest

## Input Exercise: read the entry CCc1ncnc(-c2ccnc(C)c2)c1C#Cc1cnc(C)c(NS(C)(=O)=O)c1 [Example 4] and state which class it falls under.
## Output middle

###

system: MB453 cells; assay: alamarBlue MB453 cell assay (antiproliferative/cytotoxicity); type: cell-based; settings: Homo sapiens; MDA MB 453 breast cancer cell line
Exercise: for every item that follows, state its recorded pEC50.
Value format note: pEC50 is -log10 of concentration (mol/L); just state the number.

## Input For MB453 cells, provide pEC50 of CCc1ncnc(-c2ccnc(C)c2)c1C#Cc1cnc(C)c(NS(=O)(=O)c2ccccc2Cl)c1 please.
## Output 6.72

## Input State its pEC50 on MB453 cells: CCc1ccccc1S(=O)(=O)Nc1cc(C#Cc2c(CC)ncnc2-c2ccnc(C)c2)cnc1C
## Output 6.48

## Input What is its pEC50 for MB453 cells? Entry: CCc1ncnc(-c2ccnc(C)c2)c1C#Cc1cnc(C)c(NS(=O)(=O)c2ccc(Cl)cc2)c1
## Output 6.30

## Input # query: pEC50 | item CCc1ncnc(-c2ccnc(C)c2)c1C#Cc1cnc(C)c(NS(=O)(=O)c2ccccc2OC)c1 | system: MB453 cells
## Output 6.99
